system: U2OS; test: Multiplex assay against U2OS; format: toxicity, cell-based; settings: human, 12 h, 1 µM, compound concentration 1 uM, replicate 1
Listing of recorded Total Cell Count by entry.
outcome_measure: Total Cell Count

{"columns": ["molecule", "system_tested", "outcome_measure", "measured_value"],
 "data": [
  ["Cc1ccc(-c2ccc(F)cc2COc2ccc(CCC(=O)O)cc2)cc1", "U2OS", "Total Cell Count", 277],
  ["C[C@H](NC(=O)c1c(C(F)F)nn(C)c1Oc1cccc(C(F)(F)F)c1)c1ccc(C(=O)O)cc1 [PALUPIPRANT]", "U2OS", "Total Cell Count", 266],
  ["O=C(NCCO)c1cccc(-c2cc(Nc3ccc(OC(F)(F)F)cc3)ncn2)c1", "U2OS", "Total Cell Count", 213],
  ["COc1cc(NC(=O)CCN2CCC(OC(=O)Nc3ccccc3-c3ccccc3)CC2)c(Cl)cc1CNC[C@H](O)c1ccc(O)c2[nH]c(=O)ccc12 [BATEFENTEROL]", "U2OS", "Total Cell Count", 159]
]}

====

system: HEK-293T; assay: Multiplex assay against HEK293T; format: toxicity, cell-based; settings: human, 48 h, 1 µM, compound concentration 1 uM, replicate 2

{"columns": ["compound", "Total Cell Count"],
 "data": [
  ["Cc1nc2ccc(Oc3ccc(F)cc3)cc2c(=O)n1C[C@H]1CCCN(C(C)C)C1.Cl", 380],
  ["COc1cc(NC(=O)CCN2CCC(OC(=O)Nc3ccccc3-c3ccccc3)CC2)c(Cl)cc1CNC[C@H](O)c1ccc(O)c2[nH]c(=O)ccc12 [BATEFENTEROL]", 547],
  ["CN1CCN2c3ncccc3Cc3ccccc3C2C1 (centres undefined) [MIRTAZAPINE]", 562],
  ["O=C1COc2nccc(-c3ccccc3F)c2CN1Cc1cc(C(F)(F)F)cc(C(F)(F)F)c1", 574]
]}

====

tested on: HEK-293T; assay: Multiplex assay against HEK293T; type: toxicity, cell-based; settings: human, 48 h, 1 µM, compound concentration 1 uM, replicate 1
Listing of recorded Population Healthy Nuclei (%) by entry.

{"columns": ["compound", "Population Healthy Nuclei (%)"],
 "data": [
  ["CCCN1CCC[C@@H]2Cc3n[nH]cc3C[C@H]21.Cl [QUINPIROLE HYDROCHLORIDE]", 76],
  ["COc1ccccc1N1CCN(CCCCNC(=O)c2ccc3ccccc3c2)CC1.Cl", 81],
  ["CC[C@H]1OC(=O)[C@H](C)[C@@H](O[C@H]2C[C@@](C)(OC)[C@@H](O)[C@H](C)O2)[C@H](C)[C@@H](O[C@@H]2O[C@H](C)C[C@H](N(C)C)[C@H]2O)[C@@]2(C)CC(C)=C(O2)[C@H](C)[C@@H](O)[C@]1(C)O", 76],
  ["O=S(=O)(c1ccccc1)c1cnc2c(N3CCNCC3)cccc2c1 [INTEPIRDINE]", 80],
  ["CCOc1c2c(c(OCC)c3ncccc13)CN(c1ccc(CS(=O)(=O)NC(=O)Cc3ccccc3OC)cc1C)C2=O", 79],
  ["CCCn1c(=O)c2[nH]c(C3CCCC3)nc2n(CCC)c1=O", 81],
  ["CCCC(CCC)C(=O)O", 78],
  ["CSc1ccccc1N1CCN(CCCCCC(=O)NC2CCCc3ccccc32)CC1.Cl (stereo not drawn)", 78],
  ["COc1cc(NC(=O)CCN2CCC(OC(=O)Nc3ccccc3-c3ccccc3)CC2)c(Cl)cc1CNC[C@H](O)c1ccc(O)c2[nH]c(=O)ccc12", 75],
  ["COc1cc(C(=O)N(CCCc2ccccc2)Cc2ccc(CC(=O)O)cc2)cc(OC)c1C", 77],
  ["O=C(O)c1cc2ccccc2c(Cc2c(O)c(C(=O)O)cc3ccccc23)c1O", 81],
  ["Oc1c(CN2CCN(c3ccccn3)CC2)cc(Cl)c2cccnc12", 80],
  ["c1cc(OCCCN2CCCCC2)ccc1CN1CCCCC1", 80],
  ["Cc1ccc(C(C)(O)c2nc3ccccc3s2)c(C)c1 (stereo not drawn)", 73],
  ["COc1c(C)cc(NC(=O)c2nn(Cc3ccc(F)cc3)c3c2CN(C(=O)c2ccc[nH]2)C[C@]3(C)C(N)=O)cc1C", 81],
  ["CN1CCN2c3ncccc3Cc3ccccc3C2C1 (stereo not drawn)", 82],
  ["Cc1ccccc1C(=O)Nc1ccc(C(=O)N2CCCC(N(C)C)c3ccccc32)cc1.Cl (stereo not drawn)", 78],
  ["CNC[C@H](O)c1ccc(O)c(O)c1 [EPINEPHRINE]", 81]
]}

====

tested on: U2OS; test: Multiplex assay against U2OS; assay type: toxicity, cell-based; details: human, 24 h, 10 µM, compound concentration 10 uM, replicate 2
Classification field: Criterion met = Population Membrane Permeable-Phenotype (%) at or over 9%; Criterion not met = Population Membrane Permeable-Phenotype (%) under 9%.

{"columns": ["molecule", "discrete_label"],
 "data": [
  ["O=S(=O)(c1ccccc1)c1cnc2c(N3CCNCC3)cccc2c1 [INTEPIRDINE]", "Criterion met"],
  ["CSCC[C@H](NC=O)C(=O)N[C@@H](CC(C)C)C(=O)N[C@@H](Cc1ccccc1)C(=O)O", "Criterion not met"],
  ["O=C(O)c1cc2ccccc2c(Cc2c(O)c(C(=O)O)cc3ccccc23)c1O", "Criterion not met"],
  ["CC[C@H]1OC(=O)[C@H](C)[C@@H](O[C@H]2C[C@@](C)(OC)[C@@H](O)[C@H](C)O2)[C@H](C)[C@@H](O[C@@H]2O[C@H](C)C[C@H](N(C)C)[C@H]2O)[C@@]2(C)CC(C)=C(O2)[C@H](C)[C@@H](O)[C@]1(C)O", "Criterion met"],
  ["CC(C)(C)c1ccc(S(=O)(=O)Nc2ccc(Cl)cc2C(=O)c2cc[n+]([O-])cc2)cc1", "Criterion met"],
  ["c1cc(OCCCN2CCCCC2)ccc1CN1CCCCC1", "Criterion not met"],
  ["CN(C)CCCc1cc(C(=O)Nc2ccc(-c3ccncc3)cc2)ccc1O.Cl.Cl", "Criterion not met"],
  ["CCCC(CCC)C(=O)O", "Criterion not met"],
  ["CN1CCN2c3ncccc3Cc3ccccc3C2C1 (stereo unspecified)", "Criterion not met"],
  ["CN(C)c1ccnc2sc3c(=O)n(N4CCCCCC4)cnc3c12", "Criterion met"],
  ["N[C@@]1(C(=O)O)CO[C@H]2[C@H](C(=O)O)[C@H]21", "Criterion not met"],
  ["CN1CCN(c2nc3cc(C(F)(F)F)ccc3n3cccc23)CC1.O=C(O)/C=C\\C(=O)O.O=C(O)/C=C\\C(=O)O", "Criterion met"],
  ["Cc1ccccc1C(=O)Nc1ccc(C(=O)N2CCCC(N(C)C)c3ccccc32)cc1.Cl (stereo unspecified)", "Criterion met"],
  ["CCCn1c(=O)c2[nH]c(C3CCCC3)nc2n(CCC)c1=O", "Criterion not met"],
  ["O=C1COc2nccc(-c3ccccc3F)c2CN1Cc1cc(C(F)(F)F)cc(C(F)(F)F)c1", "Criterion met"],
  ["CCNC1(C(N)=O)CCN(c2ncnc3c2nc(-c2ccccc2Cl)n3-c2ccc(Cl)cc2)CC1", "Criterion met"],
  ["C[C@H]1[C@H]2CC[C@H]3[C@@H]4CC=C5C[C@@H](N(C)C)CC[C@]5(C)[C@H]4CC[C@]23CN1C", "Criterion met"],
  ["COc1c(C)cc(NC(=O)c2nn(Cc3ccc(F)cc3)c3c2CN(C(=O)c2ccc[nH]2)C[C@]3(C)C(N)=O)cc1C", "Criterion met"],
  ["CC1(COc2ccc3c(c2)ncn3-c2ccc3cccc(N4CCC(N)CC4)c3n2)COC1", "Criterion met"],
  ["Cl.Clc1ccc2nsnc2c1NC1=NCCN1 [TIZANIDINE HYDROCHLORIDE]", "Criterion met"]
]}

====

tested on: U2OS; assay: Multiplex assay against U2OS; format: toxicity, cell-based; conditions: human, 48 h, 1 µM, compound concentration 1 uM, replicate 2
Listing of recorded Population Pyknosed Nuclei (%) by entry.
outcome_measure: Population Pyknosed Nuclei (%)

{"columns": ["compound", "measured_value"],
 "data": [
  ["CC1(COc2ccc3c(c2)ncn3-c2ccc3cccc(N4CCC(N)CC4)c3n2)COC1", 13],
  ["O=C(O)c1cc2ccccc2c(Cc2c(O)c(C(=O)O)cc3ccccc23)c1O", 11],
  ["COc1cc(C(=O)N(CCCc2ccccc2)Cc2ccc(CC(=O)O)cc2)cc(OC)c1C", 12],
  ["COc1cc(NC(=O)CCN2CCC(OC(=O)Nc3ccccc3-c3ccccc3)CC2)c(Cl)cc1CNC[C@H](O)c1ccc(O)c2[nH]c(=O)ccc12", 17],
  ["CCCC(CCC)C(=O)O", 11],
  ["CCNC1(C(N)=O)CCN(c2ncnc3c2nc(-c2ccccc2Cl)n3-c2ccc(Cl)cc2)CC1", 14],
  ["CCOc1c2c(c(OCC)c3ncccc13)CN(c1ccc(CS(=O)(=O)NC(=O)Cc3ccccc3OC)cc1C)C2=O", 2],
  ["O=S(=O)(c1ccccc1)c1cnc2c(N3CCNCC3)cccc2c1 [INTEPIRDINE]", 18],
  ["CC[C@H]1OC(=O)[C@H](C)[C@@H](O[C@H]2C[C@@](C)(OC)[C@@H](O)[C@H](C)O2)[C@H](C)[C@@H](O[C@@H]2O[C@H](C)C[C@H](N(C)C)[C@H]2O)[C@@]2(C)CC(C)=C(O2)[C@H](C)[C@@H](O)[C@]1(C)O", 9],
  ["C[C@H]1[C@H]2CC[C@H]3[C@@H]4CC=C5C[C@@H](N(C)C)CC[C@]5(C)[C@H]4CC[C@]23CN1C", 9],
  ["CCCN1CCC[C@@H]2Cc3n[nH]cc3C[C@H]21.Cl [QUINPIROLE HYDROCHLORIDE]", 13],
  ["Cc1ccc(F)cc1C(=O)Nc1ccc(C(=O)N2Cc3cccn3Cc3ccccc32)c(Cl)c1", 10]
]}

Data credit: ChEMBL document CHEMBL5058577
